B1: CDS2 (parent)
chain: IHSIALSTFASLIGPFGGFFASGF

# Variants of: B1
# measurementDescription: protein stability index of a GFP-peptide fusion (GPS, HEK-293T) (PSI 1-6); higher = more stable;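 note: lentivirally expressed fusions sorted by FACS into six bins by GFP to DsRed ratio, PSI derived from sequencing read proportions per bin multiplied by bin number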
# conditionDescription: c terminus: a fixed tail appended
Please go through the items and note down their protein stability index.
Just the number, please.

**Q:** protein stability index for `F24Y` ?
**A:** 2.52

**Q:** protein stability index for `F20H` ?
**A:** 2.66

**Q:** protein stability index for `P15S` ?
**A:** 2.34

**Q:** protein stability index for `G23N` ?
**A:** 3.46

**Q:** protein stability index for `L6F` ?
**A:** 2.34

**Q:** protein stability index for `F24C` ?
**A:** 4.83

**Q:** protein stability index for `F20K` ?
**A:** 2.68

**Q:** protein stability index for `S11M` ?
**A:** 3.71

**Q:** protein stability index for `G18T` ?
**A:** 3.73

**Q:** protein stability index for `P15M` ?
**A:** 3.79

**Q:** protein stability index for `L12H` ?
**A:** 3.22

**Q:** protein stability index for `F19E` ?
**A:** 3.01

**Q:** protein stability index for `F16L` ?
**A:** 1.91

**Q:** protein stability index for `G14K` ?
**A:** 3.34

**Q:** protein stability index for `A21K` ?
**A:** 2.22

**Q:** protein stability index for `I1D` ?
**A:** 1.79

**Q:** protein stability index for `S7Q` ?
**A:** 2.64

**Q:** protein stability index for `S22C` ?
**A:** 2.86

**Q:** protein stability index for `G23C` ?
**A:** 2.54

**Q:** protein stability index for `I1C` ?
**A:** 3.03

**Q:** protein stability index for `F16G` ?
**A:** 4.52

**Q:** protein stability index for `S22M` ?
**A:** 3.08

The reported measurements were obtained from the supplement of paper PMC10567573.
